- target.of.assay: T1, biotinylated huIL-23R-IgG (human, UniProt Q5VWK5 24-353, biotinylated)
- T1 construct: not shown: human IgG1 Fc
- T1 sequence: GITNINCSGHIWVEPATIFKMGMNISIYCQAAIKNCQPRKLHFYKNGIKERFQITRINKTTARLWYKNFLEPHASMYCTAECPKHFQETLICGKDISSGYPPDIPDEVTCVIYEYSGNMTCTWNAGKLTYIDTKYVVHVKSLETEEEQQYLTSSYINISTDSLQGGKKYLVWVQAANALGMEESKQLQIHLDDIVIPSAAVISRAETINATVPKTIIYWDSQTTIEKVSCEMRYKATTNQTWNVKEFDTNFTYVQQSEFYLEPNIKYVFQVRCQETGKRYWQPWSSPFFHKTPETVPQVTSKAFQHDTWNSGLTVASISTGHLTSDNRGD
- assay: ECL binding assay, periplasmic Fab extracts, biotinylated huIL-23R-IgG; AUC vs parental 8B10 Fab
measurement.label: Binding (% of w.t.)

chimeric 8B10 Fab, VH S103A (Fab, V domains shown, Rat V domains with human CH1 and CL; E. coli periplasmic extract) VH: EVKLVESGGGLEQPKGSLKLSCTVSGFDFNSYGMSWVRQAPGKGLDLVADINSKSYNYATYYADSVKDRFTISRDDSQSMVYLEMDNLKTEDTALYYCTVHHADYFEYWGQGVMVTVSS VL: DIQMTQSPASLSASLGETVSIECLASEDIYNNLAWYQQKPGKSPQLLIYHASSLQDGVPSRFSGSGSGTQYSLKINSLESEDAATYFCLQDSEYPPTFGGGTKLELKR :: 65.7 % of w.t.

I'm hoping you can list Binding (% of w.t.) for every binder here, please.
1. chimeric 8B10 Fab, VH G33A (Fab, V domains shown, Rat V domains with human CH1 and CL; E. coli periplasmic extract) VH: EVKLVESGGGLEQPKGSLKLSCTVSGFDFNSYAMSWVRQAPGKGLDLVADINSKSYNYATYYADSVKDRFTISRDDSQSMVYLEMDNLKTEDTALYYCTVHHSDYFEYWGQGVMVTVSS VL: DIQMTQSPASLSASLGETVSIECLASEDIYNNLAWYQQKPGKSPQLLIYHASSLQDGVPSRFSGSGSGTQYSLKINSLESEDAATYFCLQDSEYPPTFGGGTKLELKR
2. chimeric 8B10 Fab, VL S53A (Fab, V domains shown, Rat V domains with human CH1 and CL; E. coli periplasmic extract; also called S53A (light chain variable domain)) VH: EVKLVESGGGLEQPKGSLKLSCTVSGFDFNSYGMSWVRQAPGKGLDLVADINSKSYNYATYYADSVKDRFTISRDDSQSMVYLEMDNLKTEDTALYYCTVHHSDYFEYWGQGVMVTVSS VL: DIQMTQSPASLSASLGETVSIECLASEDIYNNLAWYQQKPGKSPQLLIYHASALQDGVPSRFSGSGSGTQYSLKINSLESEDAATYFCLQDSEYPPTFGGGTKLELKR
3. chimeric 8B10 Fab, VL Y49A (Fab, V domains shown, Rat V domains with human CH1 and CL; E. coli periplasmic extract) VH: EVKLVESGGGLEQPKGSLKLSCTVSGFDFNSYGMSWVRQAPGKGLDLVADINSKSYNYATYYADSVKDRFTISRDDSQSMVYLEMDNLKTEDTALYYCTVHHSDYFEYWGQGVMVTVSS VL: DIQMTQSPASLSASLGETVSIECLASEDIYNNLAWYQQKPGKSPQLLIAHASSLQDGVPSRFSGSGSGTQYSLKINSLESEDAATYFCLQDSEYPPTFGGGTKLELKR

## Result
1. 27.4 % of w.t.
2. 85 % of w.t.
3. 62.4 % of w.t.
